biological target: Transferrin receptor 1 (TfR1, CD71), endogenous on cells (Homo sapiens, UniProt P02786 SEQ:89-760); experiment: flow; Jurkat cells, apparent Kd, 4 C; conditions: chain copies: 2 (stated homodimer); label: 5'-FAM or 5'-Cy5; multi-hairpin on stem; G-quadruplex predicted
Sequence (P02786 89-760): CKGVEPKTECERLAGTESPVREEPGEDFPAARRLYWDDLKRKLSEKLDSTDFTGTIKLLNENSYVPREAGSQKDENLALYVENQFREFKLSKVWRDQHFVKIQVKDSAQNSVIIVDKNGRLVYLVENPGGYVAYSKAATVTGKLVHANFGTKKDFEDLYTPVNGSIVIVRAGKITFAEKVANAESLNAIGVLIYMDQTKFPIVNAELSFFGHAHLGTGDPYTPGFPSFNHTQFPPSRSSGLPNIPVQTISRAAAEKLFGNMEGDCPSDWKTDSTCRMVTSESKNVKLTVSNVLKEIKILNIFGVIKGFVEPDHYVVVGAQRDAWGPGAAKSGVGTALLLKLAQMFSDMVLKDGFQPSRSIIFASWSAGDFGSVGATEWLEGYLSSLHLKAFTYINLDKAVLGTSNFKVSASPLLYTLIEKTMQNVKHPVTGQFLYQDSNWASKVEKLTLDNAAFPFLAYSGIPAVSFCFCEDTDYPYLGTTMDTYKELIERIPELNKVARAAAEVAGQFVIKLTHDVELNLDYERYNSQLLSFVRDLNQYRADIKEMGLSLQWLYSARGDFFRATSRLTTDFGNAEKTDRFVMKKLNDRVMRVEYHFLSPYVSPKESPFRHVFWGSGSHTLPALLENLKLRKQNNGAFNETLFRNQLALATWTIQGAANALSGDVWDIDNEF
measured.metric: Kd (nM)
The response must be a number in nM with no trailing unit.

# get_value(readout='Kd', item= JBA8.1 (ssDNA) DNA: ATCCAGAGTGACGCAGCAGCGTAAAGGGGGTGTTTGTGCGGTGTGGAGTGCGCGTGCTGCTGCTGGACACGGTGGCTTAGT )
5.5

Data credit: patent US12760268
